Data origin: patent US20240116985A1

Please go through the items and note down their pIC50.
# target-system: full-length beta-Catenin (Uniprot ID P35222) (Homo sapiens)
# Construct: 10 nM full-length beta-Catenin (Uniprot ID P35222)
# Sequence (P35222 1-781): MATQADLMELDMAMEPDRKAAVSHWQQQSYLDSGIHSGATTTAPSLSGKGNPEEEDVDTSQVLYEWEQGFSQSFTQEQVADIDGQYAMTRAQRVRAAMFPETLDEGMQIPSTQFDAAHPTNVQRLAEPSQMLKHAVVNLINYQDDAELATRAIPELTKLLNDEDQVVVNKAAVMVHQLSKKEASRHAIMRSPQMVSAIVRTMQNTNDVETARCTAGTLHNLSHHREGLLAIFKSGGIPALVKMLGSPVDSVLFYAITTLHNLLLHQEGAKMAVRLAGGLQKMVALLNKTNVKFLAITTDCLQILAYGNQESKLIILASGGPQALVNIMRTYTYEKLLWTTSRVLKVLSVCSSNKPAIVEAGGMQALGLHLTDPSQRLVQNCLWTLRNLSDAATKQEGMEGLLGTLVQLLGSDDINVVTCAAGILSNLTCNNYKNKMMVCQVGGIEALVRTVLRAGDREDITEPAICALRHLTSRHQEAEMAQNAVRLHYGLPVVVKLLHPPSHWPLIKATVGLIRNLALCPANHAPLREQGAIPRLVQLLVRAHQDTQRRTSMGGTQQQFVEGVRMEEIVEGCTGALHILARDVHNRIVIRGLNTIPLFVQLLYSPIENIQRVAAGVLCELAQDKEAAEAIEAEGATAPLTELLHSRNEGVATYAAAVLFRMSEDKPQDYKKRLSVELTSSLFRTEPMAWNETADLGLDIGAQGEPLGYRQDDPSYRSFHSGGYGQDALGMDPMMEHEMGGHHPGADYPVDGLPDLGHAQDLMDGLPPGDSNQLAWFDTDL
# test-method-notes: Fluorescence polarization IC50 (beta-catenin / 5FAM-TCF4 10-53 competition)
# Format: binding
# experimental-parameters: fluorescence polarization; read-out: beta-Catenin FP IC50
By convention, pIC50 is the negative base-10 log of a molar concentration.

Prompt: Dear colleague, I am looking for the recorded pIC50 of the following compound: CC(=O)N1CCC[C@]12CC=CCCCC1(CCCC=CCCCOC(=O)N3CC[C@@](C(=O)N[C@@H](Cc4ccsc4)C(=O)N[C@@H](Cc4cn(C)c5ccccc45)C(=O)N[C@@H](CCC(N)=O)C(N)=O)(C3)NC(=O)[C@H](CC(C)C)NC(=O)[C@H](Cc3ccccc3)NC(=O)[C@H](C)NC(=O)[C@H](C)NC(=O)[C@H](CC(=O)O)NC(=O)[C@H](CC(=O)O)NC1=O)NC(=O)[C@H](CC(C)(C)C)NC(=O)[C@H](CC(=O)O)NC2=O (some centres unmarked) [I-1433]
Completion: 7.15

Prompt: Would you mind doing CC(=O)N1CCC[C@H]1C(=O)N[C@]1(C)CCCC=CCCCC2(CCCC=CCCCOC(=O)N3CC[C@@](C(=O)N[C@@H](Cc4ccccc4C(F)(F)F)C(=O)N[C@@H](Cc4csc5ccccc45)C(=O)N[C@@H](CCC(N)=O)C(N)=O)(C3)NC(=O)[C@H](CC(C)C)NC(=O)[C@H](Cc3ccccc3)NC(=O)[C@H](C)NC(=O)[C@H](C)NC(=O)[C@H](Cc3cccc(C(=O)O)c3)NC(=O)[C@H](CC(=O)O)NC2=O)NC(=O)[C@H](CC(C)(C)C)NC(=O)[C@H](CC(=O)O)NC(=O)[C@H](CCC(=O)O)NC1=O (some centres unmarked) [I-2575] as well?
Completion: 5.09

Prompt: Now consider CC(=O)N1CCC[C@]12CC=CCCCC1(CCCC=CCCCOC(=O)N3CC[C@@](C(=O)N[C@@H](Cc4ccccc4)C(=O)N[C@@H](Cc4csc5ccccc45)C(=O)N[C@@H](CCO)C(N)=O)(C3)NC(=O)[C@H](CC(N)=O)NC(=O)[C@H](Cc3ccccc3)NC(=O)[C@H](C)NC(=O)[C@H](CCCCNC(C)C)NC(=O)[C@H](CCO)NC(=O)[C@H](CC(=O)O)NC1=O)NC(=O)[C@H](CC1CCCCC1)NC(=O)[C@H](CC(N)=O)NC2=O (some centres unmarked) [I-1933] .
Completion: 6.81

Prompt: Lookup CC(=O)N1CCC[C@]12CC=CCCCC1(CCCC=CCCCOC(=O)N3CC[C@@](C(=O)N[C@@H](Cc4ccccc4)C(=O)N[C@@H](Cc4csc5ccccc45)C(=O)N[C@@H](CCC(N)=O)C(N)=O)(C3)NC(=O)[C@H](CC(C)C)NC(=O)[C@H](Cc3ccccc3)NC(=O)[C@H](C)NC(=O)[C@H](C)NC(=O)[C@H](CCC(N)=O)NC(=O)[C@H](CC(=O)O)NC1=O)NC(=O)[C@H](CC(C)(C)C)NC(=O)[C@H](CCO)NC2=O (some centres unmarked) [I-2443]
Completion: 5.18

Prompt: Further, for CC[C@@H](C)[C@@H]1NC(=O)[C@H](CC(=O)O)NC(=O)[C@]2(CC=CCCCC3(CCCC=CCCCCCC[C@@](C)(C(=O)N[C@@H](Cc4ccccc4)C(=O)N[C@@H](Cc4csc5ccccc45)C(=O)N[C@@H](CCC(N)=O)C(N)=O)NC(=O)[C@H](CC(N)=O)NC(=O)[C@H](Cc4ccccc4)NC(=O)[C@H](C)NC(=O)[C@H](C)NC(=O)[C@H](CCC(=O)O)NC(=O)[C@H](CC(=O)O)NC3=O)NC1=O)CCCN2C(C)=O (some centres unmarked) [I-476] ?
Completion: 7.32

---

# target-system: full-length beta-Catenin (Uniprot ID P35222) (Homo sapiens)
# Construct: 10 nM full-length beta-Catenin (Uniprot ID P35222)
# test-method-notes: Fluorescence polarization IC50 (beta-catenin / 5FAM-TCF4 10-53 competition)
# Assay type: binding
# experimental-parameters: fluorescence polarization; read-out: beta-Catenin FP IC50
quantity-name: IC50 (µM)
Numbers only here, please. The scale is µM.

Prompt: Given the compound CCNC(=O)[C@H](CCC(N)=O)NC(=O)[C@H](Cc1csc2ccccc12)NC(=O)[C@H](Cc1ccsc1)NC(=O)[C@]12CCN(C1)C(=O)OCCCC=CCCCC1(CCCC=CC[C@]3(CCCN3C(C)=O)C(=O)N[C@@H](CC(=O)O)C(=O)N[C@@H](CC(C)(C)C)C(=O)N1)C(=O)N[C@@H](CC(=O)O)C(=O)N[C@@H](CN(CC(=O)O)CC(F)(F)F)C(=O)N[C@@H](C)C(=O)N[C@@H](C)C(=O)N[C@@H](Cc1ccccc1)C(=O)N[C@@H](CC(C)C)C(=O)N2 (stereo partly shown) , what is its reported IC50?
Completion: 0.032

---

# target-system: full-length beta-Catenin (Uniprot ID P35222) (Homo sapiens, UniProt P35222)
# Construct: 10 nM full-length beta-Catenin (Uniprot ID P35222)
# test-method-notes: Fluorescence polarization IC50 (beta-catenin / 5FAM-TCF4 10-53 competition)
# Assay type: binding
# experimental-parameters: read-out: beta-Catenin FP IC50
Consider the following compounds; for each one, report its IC50.

Prompt: What does the data say about its IC50? Entry: CC(=O)N1CCC[C@]12CC=CCCCC1(CCCC=CCCCOC(=O)N3CC[C@@](C(=O)N[C@@H](Cc4ccccc4Cl)C(=O)N[C@@H](Cc4csc5ccccc45)C(=O)N4CCC[C@H]4CO)(C3)NC(=O)[C@H](CC(N)=O)NC(=O)[C@H](Cc3ccccc3)NC(=O)[C@H](C)NC(=O)[C@H](C)NC(=O)[C@H](CC(=O)O)NC(=O)[C@H](CC(=O)O)NC1=O)NC(=O)[C@H](CC(C)(C)C)NC(=O)[C@H](CC(=O)O)NC2=O (stereo partly drawn) [I-1084]
Completion: 368 nM

Prompt: Request: CC(=O)N1CCC[C@]12CC=CCCCC1(CCCC=CCCCOC(=O)N3CC[C@@](C(=O)N[C@@H](Cc4ccccc4Cl)C(=O)N[C@@H](Cc4csc5ccccc45)C(=O)N[C@@H](C(N)=O)[C@H](C)O)(C3)NC(=O)[C@H](CC(N)=O)NC(=O)[C@H](Cc3ccccc3)NC(=O)[C@H](C)NC(=O)[C@H](C)NC(=O)[C@H](CC(=O)O)NC(=O)[C@H](CC(=O)O)NC1=O)NC(=O)[C@H](CC(C)(C)C)NC(=O)[C@H](CC(=O)O)NC2=O (stereo partly drawn) [I-1028]
Completion: 13 nM

Prompt: Next compound up: CC(=O)N1CCC[C@]12CC=CCCCC1(CCCC=CCCCCOC(=O)N3CC[C@@](C(=O)N[C@@H](Cc4ccsc4)C(=O)N[C@@H](Cc4csc5ccccc45)C(=O)N[C@@H](CCC(N)=O)C(N)=O)(C3)NC(=O)[C@H](CC(N)=O)NC(=O)[C@H](Cc3ccccc3)NC(=O)[C@H](C)NC(=O)[C@H](C)NC(=O)[C@H](CC(=O)O)NC(=O)[C@H](CC(=O)O)NC1=O)NC(=O)[C@H](CC(C)(C)C)NC(=O)[C@H](CC(=O)O)NC2=O (stereo partly drawn) [I-768]
Completion: 9 nM
